- Tested on: Hs578T
- assay method text: drug sensitivity score (DSS), CellTiter-Glo (DSS (AUC-based score)); higher = stronger drug effect (viability inhibition or cytotoxicity); extreme values may be limits of the assay
- conditions used: incubation time: 72 h
Hi there, I'd appreciate the recorded drug sensitivity score for every entry that follows.
Keep it simple and answer with nothing but the number.

Test system Hs578T; read-out drug sensitivity score; what value for Nc1ncn([C@@H]2O[C@H](CO)[C@@H](O)[C@H]2O)c(=O)n1 ?
0

Next up: CC(C)(C)c1cnc(CSc2cnc(NC(=O)C3CCNCC3)s2)o1
21.8

Try this molecule next: CC1(C)CCC(CN2CCN(c3ccc(C(=O)NS(=O)(=O)c4ccc(NCC5CCOCC5)c([N+](=O)[O-])c4)c(Oc4cnc5[nH]ccc5c4)c3)CC2)=C(c2ccc(Cl)cc2)C1
0

Now consider CC(=O)O[C@@]12CO[C@@H]1C[C@H](O)[C@@]1(C)C(=O)[C@H](O)C3=C(C)[C@@H](OC(=O)[C@H](O)[C@@H](NC(=O)OC(C)(C)C)c4ccccc4)C[C@@](O)([C@@H](OC(=O)c4ccccc4)[C@H]21)C3(C)C .
27.2

Can you handle Cc1sc2c(c1C)C(c1ccc(Cl)cc1)=N[C@@H](CC(=O)OC(C)(C)C)c1nnc(C)n1-2 [(+)JQ1] next?
12.8

What about CC(=O)c1c(C)c2cnc(Nc3ccc(N4CCNCC4)cn3)nc2n(C2CCCC2)c1=O ?
0.478

---

Task for the reader: assign each of the following compounds its reported normalised viability.
- Tested on: MDA-MB-468
- assay method text: normalised viability (% of control), CellTiter-Blue; higher = more viable cells (about 100 = DMSO control)
- conditions used: 10 nM; incubation time: 72 h
Give the quantity in %, number only.

Short answer please: normalised viability, MDA-MB-468, entry C[C@]1(O)C[C@@H](c2nc(-c3ccc4ccc(-c5ccccc5)nc4c3)c3c(N)nccn32)C1
104

Follow-up item: O=P(O)(O)C(O)(Cn1ccnc1)P(=O)(O)O
107

Please do the same for O=C1CN2Cc3c(ccc(Cl)c3Cl)N=C2N1 [Anagrelide] as well.
106

Request: CC1=C2C[C@H]3[C@@H](CC=C4C[C@@H](O)CC[C@@]43C)[C@@H]2CC[C@]12O[C@@H]1C[C@H](C)CN[C@H]1[C@H]2C
100

---

- Test system: CAL-85-1
- assay method text: normalised viability (% of control), CellTiter-Blue; higher = more viable cells (about 100 = DMSO control)
- conditions used: 100 nM; incubation time: 72 h
# note: exactly 90% is not below, so it is NOT MET; use MET for normalised viability strictly under it

Lab log: compare recorded normalised viability with 90%; is it strictly lower for Cc1sc2c(c1C)C(c1ccc(Cl)cc1)=N[C@@H](CC(=O)OC(C)(C)C)c1nnc(C)n1-2 [(+)JQ1] ?
MET

What do you get for O=C1CN2Cc3c(ccc(Cl)c3Cl)N=C2N1 [Anagrelide] ?
NOT MET

Next entry: O=NN(CCCl)C(=O)NCCCl
NOT MET

What do you have for COc1cc2c(cc1O)CC[C@@H]1[C@@H]2CC[C@]2(C)[C@@H](O)CC[C@@H]12 ?
NOT MET

Please do the same for CC(C)(C)c1cnc(CSc2cnc(NC(=O)C3CCNCC3)s2)o1 as well.
MET

Cited source for all entries: the supplement of paper PMC4862054
